Consider the following molecules; for each one, report its IC50.
# assay_system: UniProt:P14902
# protocol: IDO1 Cellular Assay in HeLa Cells Stimulated with IFNγ
# Format: cell-based
# Design: endogenous in cells; host or cells: HeLa cells stimulated with IFNγ
# assay_context: HeLa cells stimulated with IFNγ 100 ng/mL, 300 uM L-tryptophan, about 48 hours, fluorescence readout; read-out: IDO1 HELA Cell Assay, IC50
Answers are plain numbers, in nM.

Some molecules with recorded IC50:
molecule	units	IC50
O=C(NC1(c2ccc3c(n2)C2CC2CN3c2ccnc(CO)n2)CC1)c1ccc(F)cc1 (stereo not shown) [Example 19]	nM	11
O=C(NC1(c2ccc3c(n2)C2CC2CN3c2ccnc(C3CC3)n2)CC1)c1ccc(F)cc1 (stereo not shown) [Example 16]	nM	2.6
CCC(NC(=O)c1ccc(F)cc1)c1ccc2c(n1)C1CC1CN2c1ccnc(C)n1 (racemic) [Example 38]	nM	6.77
Cc1nccc(N2C[C@H]3C[C@H]3c3nc(C4(NC(=O)c5ccc(F)cc5)CC4)ccc32)n1 (stereo in doubt) [Example 13]	nM	1.07
O=C(NC1(c2ccc3c(n2)[C@H]2C[C@H]2CN3C(=O)OC2CCOCC2)CC1)c1ccc(F)cc1 [Example 22]	nM	61.6
CCC(NC(=O)c1ccc(F)cc1)c1ccc2c(n1)C1CC1CN2C(=O)OC1CC1 (single isomer, unassigned) [Example 37]	nM	2.83

What IC50 value was documented for this molecule, O=C(NC1(c2ccc3c(n2)C2CC2CN3c2ccnc(C3CC3)n2)CC1)c1ccc(F)cc1 (stereo not shown) [Example 15] ?
4.4

###

# assay_system: IDO1 (Homo sapiens, UniProt P14902)
# Sequence (P14902 whole entry): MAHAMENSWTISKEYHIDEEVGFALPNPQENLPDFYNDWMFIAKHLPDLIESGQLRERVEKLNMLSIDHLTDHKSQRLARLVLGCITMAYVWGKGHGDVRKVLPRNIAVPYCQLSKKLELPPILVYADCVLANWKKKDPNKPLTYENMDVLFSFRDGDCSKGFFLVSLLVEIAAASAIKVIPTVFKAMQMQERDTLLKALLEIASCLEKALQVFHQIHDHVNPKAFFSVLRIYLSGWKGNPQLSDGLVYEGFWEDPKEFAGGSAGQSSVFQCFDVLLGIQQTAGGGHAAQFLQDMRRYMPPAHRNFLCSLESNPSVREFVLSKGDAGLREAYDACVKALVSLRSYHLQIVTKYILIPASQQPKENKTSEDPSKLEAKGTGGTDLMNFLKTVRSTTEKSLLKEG
# protocol: IDO1 Human Whole Blood Assay
# Type: cell-based
# assay_context: LPS and IFNγ 100 ng/mL, overnight (18 h), kynurenine by LC/MS/MS
measured_endpoint: IC50
Remember to put the unit after the number in your answer.

compound	IC50
O=C(NC1(c2ccc3c(n2)C2CC2CN3c2ccnc(CO)n2)CC1)c1ccc(F)cc1 (centres unmarked)	151 nM
CC(C)(NC(=O)c1ccc(F)cc1)c1ccc2c(n1)C1CC1CN2C(=O)C(F)(F)F (centres unmarked)	778 nM
O=C(NC1(c2ccc3c(n2)C2CC2CN3c2ccnc(C3CC3)n2)CC1)c1ccc(F)cc1 (centres unmarked) [Example 16]	32 nM
O=C(NC1(c2ccc3c(n2)C2CC2CN3c2ccnc(C3CC3)n2)CC1)c1ccc(F)cc1 (centres unmarked) [Example 15]	50 nM

Shifting focus to the compound that follows.
For CC(C)(NC(=O)c1ccc(F)cc1)c1ccc2c(n1)C1CC1CN2C(=O)OC1CC1 (single isomer, unassigned) , what is its reported IC50?
778 nM
